# key: entry, value: EC50
tested system: UniProtKB P9WHJ3
assay: Fluorescence Cell-Free Homogeneous Dose Retest to Identify Inhibitors of RecA-Intein Splicing Activity. [Related pubchem assays (depositor defined):AID2097, AID2223, AID489010, AID492950]
Format: functional
Calls of active or inactive are those of the source.

compound	EC50
COCc1n[nH]c2c1C(c1ccccc1OC)C(C#N)=C(N)O2 (stereo unspecified)	4.77 µM (active)
O=C1C(Nc2ccccc2)=C/C(=N/S(=O)(=O)c2cccs2)c2ccccc21	0.143 µM (active)
O=C(C[S+]([O-])c1ccc(C(F)(F)F)cc1[N+](=O)[O-])Oc1ccccc1 (stereo unspecified)	4.59 µM (active)
O=C(/C=C/c1ccco1)c1ccc(NC(=O)C23CC4CC(CC(C4)C2)C3)cc1	55.5 µM (active)
CC(=O)Nc1ccc(S(=O)(=O)NC2=C(N3CCN(c4ccc(F)cc4)CC3)C(=O)c3ccccc3C2=O)cc1	10.4 µM (active)
CCOc1cc(C2C(C#N)=C(N)Oc3[nH]nc(CC)c32)ccc1OCCN1CCOCC1 (stereo unspecified)	7.2 µM (active)

====

tested system: RNA-binding protein pos-1 (Caenorhabditis elegans)
Sequence (G5EF15 whole entry, the tested form may be a part): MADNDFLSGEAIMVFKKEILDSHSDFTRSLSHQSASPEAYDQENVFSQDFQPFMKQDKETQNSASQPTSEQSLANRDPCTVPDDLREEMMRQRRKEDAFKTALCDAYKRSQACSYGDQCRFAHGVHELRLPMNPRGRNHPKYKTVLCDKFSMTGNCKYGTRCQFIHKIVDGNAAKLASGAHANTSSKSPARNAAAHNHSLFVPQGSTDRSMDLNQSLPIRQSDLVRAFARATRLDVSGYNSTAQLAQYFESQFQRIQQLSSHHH
assay: disruptors of C. elegans POS-1 RNA interaction – biochemical, fluorescence polarization, dose response (AID 1964);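 further: purified POS-1 fused to maltose binding protein made in E. coli; potency of compounds blocking POS-1 binding to fluorescent RNA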
Active and inactive are the calls of the source.
experimental endpoint: EC50

compound	reported result
COc1cc(/C=N/Nc2nc(O)nnc2C)ccc1O	56.8 µM (active)
O=C1NC(=O)N(c2cccc(Cl)c2)C(=O)/C1=C\Nc1ccccn1	> 300 µM (not active)
COC(=O)CCCC1=CC2=CC(=O)C(C)(OC(=O)CCc3ccccc3)C(=O)C2=CO1 (stereo not given)	30.9 µM (active)
Cc1ccc(/C=C2\Oc3c(ccc(O)c3CN3CCN(CCO)CC3)C2=O)cc1	36 µM (active)
N#C/C(=C/c1cccn1-c1cccc(C(=O)O)c1)c1ccc(Cl)cc1	> 300 µM (not active)
Cc1ccc(CNC(=O)/C(C#N)=C\c2ccc(N(C)C)cc2)cc1	43.5 µM (active)
CN(C)c1ccc(/C=C/c2nc3ccccc3s2)cc1	> 300 µM (not active)
CCN1C(=O)/C(=C\c2cccs2)C(C(=O)OC)=C1C	> 300 µM (not active)
O=Cc1ccc2cccc3c2c1NC(C(F)(F)F)=N3	27.6 µM (active)
CNC(=O)c1c(NC(=O)c2ccc(S(=O)(=O)N3CCCc4ccccc43)cc2)sc2c1CCN(C)C2	> 300 µM (not active)

====

tested system: Fatty acid synthase (Homo sapiens)
Sequence (P49327 whole entry): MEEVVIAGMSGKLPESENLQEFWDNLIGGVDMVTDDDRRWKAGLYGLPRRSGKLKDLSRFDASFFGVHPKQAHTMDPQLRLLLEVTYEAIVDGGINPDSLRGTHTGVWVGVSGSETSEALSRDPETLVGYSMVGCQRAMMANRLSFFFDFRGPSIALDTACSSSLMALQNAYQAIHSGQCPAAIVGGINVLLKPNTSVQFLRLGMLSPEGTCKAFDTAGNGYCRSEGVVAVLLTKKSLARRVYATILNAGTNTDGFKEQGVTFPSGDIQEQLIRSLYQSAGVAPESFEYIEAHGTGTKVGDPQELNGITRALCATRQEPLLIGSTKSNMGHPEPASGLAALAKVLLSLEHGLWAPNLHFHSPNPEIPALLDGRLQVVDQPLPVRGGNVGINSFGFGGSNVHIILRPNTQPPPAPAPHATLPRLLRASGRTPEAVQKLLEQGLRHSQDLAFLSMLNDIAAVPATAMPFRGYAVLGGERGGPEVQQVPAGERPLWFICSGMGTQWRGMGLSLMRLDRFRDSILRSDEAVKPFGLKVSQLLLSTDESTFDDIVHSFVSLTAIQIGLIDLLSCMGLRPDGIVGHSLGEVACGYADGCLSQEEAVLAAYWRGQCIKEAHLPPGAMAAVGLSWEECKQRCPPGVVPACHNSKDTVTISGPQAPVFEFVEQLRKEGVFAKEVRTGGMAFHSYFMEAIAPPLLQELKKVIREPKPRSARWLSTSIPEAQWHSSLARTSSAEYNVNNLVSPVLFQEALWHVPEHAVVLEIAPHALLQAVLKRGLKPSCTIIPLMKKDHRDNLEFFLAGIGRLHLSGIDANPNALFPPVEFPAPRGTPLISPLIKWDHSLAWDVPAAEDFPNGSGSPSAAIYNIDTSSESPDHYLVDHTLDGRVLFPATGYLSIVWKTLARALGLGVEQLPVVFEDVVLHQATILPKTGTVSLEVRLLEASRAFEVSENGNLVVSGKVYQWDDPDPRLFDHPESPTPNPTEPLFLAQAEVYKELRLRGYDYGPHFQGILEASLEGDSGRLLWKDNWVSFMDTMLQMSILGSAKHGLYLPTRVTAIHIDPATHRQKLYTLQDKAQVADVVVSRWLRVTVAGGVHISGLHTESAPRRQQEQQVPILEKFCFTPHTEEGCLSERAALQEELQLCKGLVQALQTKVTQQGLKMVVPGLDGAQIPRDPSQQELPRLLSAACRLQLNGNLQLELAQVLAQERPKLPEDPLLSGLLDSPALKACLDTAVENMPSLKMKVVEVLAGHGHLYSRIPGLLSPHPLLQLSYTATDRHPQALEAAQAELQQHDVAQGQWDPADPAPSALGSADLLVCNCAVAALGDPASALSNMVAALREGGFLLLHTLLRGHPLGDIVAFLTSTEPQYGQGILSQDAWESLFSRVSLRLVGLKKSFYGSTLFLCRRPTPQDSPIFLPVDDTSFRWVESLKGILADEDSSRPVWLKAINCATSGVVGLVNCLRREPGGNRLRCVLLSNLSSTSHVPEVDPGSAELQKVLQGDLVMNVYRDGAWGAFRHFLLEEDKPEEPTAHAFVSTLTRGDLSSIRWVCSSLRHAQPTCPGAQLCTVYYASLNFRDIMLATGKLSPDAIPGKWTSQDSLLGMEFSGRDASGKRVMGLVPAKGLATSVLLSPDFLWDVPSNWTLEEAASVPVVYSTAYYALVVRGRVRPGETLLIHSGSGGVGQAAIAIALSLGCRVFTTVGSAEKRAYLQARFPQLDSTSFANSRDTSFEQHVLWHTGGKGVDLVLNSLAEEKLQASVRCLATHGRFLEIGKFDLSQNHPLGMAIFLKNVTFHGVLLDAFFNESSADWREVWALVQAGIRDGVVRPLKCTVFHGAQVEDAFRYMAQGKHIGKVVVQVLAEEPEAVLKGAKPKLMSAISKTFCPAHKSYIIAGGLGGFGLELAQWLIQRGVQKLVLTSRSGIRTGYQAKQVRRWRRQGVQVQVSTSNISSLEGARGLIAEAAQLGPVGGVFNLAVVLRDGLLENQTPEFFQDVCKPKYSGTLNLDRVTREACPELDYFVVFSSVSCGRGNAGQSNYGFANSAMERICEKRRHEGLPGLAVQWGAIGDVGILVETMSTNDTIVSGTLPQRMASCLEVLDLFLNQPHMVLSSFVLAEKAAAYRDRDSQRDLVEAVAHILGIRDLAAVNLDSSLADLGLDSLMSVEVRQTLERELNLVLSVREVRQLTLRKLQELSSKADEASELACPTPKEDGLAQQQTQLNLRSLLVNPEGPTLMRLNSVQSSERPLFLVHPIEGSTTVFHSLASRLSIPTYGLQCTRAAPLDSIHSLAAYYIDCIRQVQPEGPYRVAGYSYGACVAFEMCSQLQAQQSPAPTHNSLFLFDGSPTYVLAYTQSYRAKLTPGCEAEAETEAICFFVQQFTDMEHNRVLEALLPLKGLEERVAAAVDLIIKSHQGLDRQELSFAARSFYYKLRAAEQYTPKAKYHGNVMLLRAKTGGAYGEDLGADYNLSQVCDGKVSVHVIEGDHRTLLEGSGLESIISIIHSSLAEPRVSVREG
assay: inhibition of human FAS-TE enzyme activity – biochemical, kinetic fluorescence intensity, dose response (AID 624326);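 further: rate of fluorescence rise from hydrolysis of a fluorogenic O-methyl fluorescein ester substrate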
Assay type: functional
Active and inactive are the calls of the source.
Outcome codes: active, inactive

compound	tested system	discrete label
O=C(COc1cccc(Oc2ccccc2)c1)Nc1ccc(SC(F)F)cc1	Fatty acid synthase (Homo sapiens)	active
Cc1ccc(S(=O)(=O)Nc2cccc(-c3ccc4nncn4n3)c2)cc1	Fatty acid synthase (Homo sapiens)	inactive
O=C(Nc1ccc(OC(F)(F)F)cc1)Nc1cccc([N+](=O)[O-])c1	Fatty acid synthase (Homo sapiens)	active
COc1ccc(N(C(=O)CCl)C(C(=O)NCCc2ccccc2)c2cccs2)cc1Cl (stereo unspecified)	Fatty acid synthase (Homo sapiens)	active
CC(C)c1ccc(CSc2ccc(S(=O)(=O)N3CCOCC3)cn2)cc1	Fatty acid synthase (Homo sapiens)	active
CCc1ccc(C(=O)COC(=O)c2cc([N+](=O)[O-])ccc2N2CCOCC2)cc1	Fatty acid synthase (Homo sapiens)	active
O=C(Nc1cccc([N+](=O)[O-])c1)NC1CCCCCCC1	Fatty acid synthase (Homo sapiens)	active
CSCC[C@H](NC(=O)c1ccc(Cl)c([N+](=O)[O-])c1)c1nc2ccccc2[nH]1	Fatty acid synthase (Homo sapiens)	active
CSc1nc(N)c(N=Nc2ccc([As](=O)(O)O)cc2)c(O)n1	Fatty acid synthase (Homo sapiens)	active
COc1cc(N(C)C)c([N+](=O)[O-])cc1C(=O)NC(C)CNc1ccc([N+](=O)[O-])cc1Cl (stereo unspecified)	Fatty acid synthase (Homo sapiens)	active
O=C(NC(Cc1c[nH]c2ccccc12)C(=O)Nc1ccc(F)c([N+](=O)[O-])c1)c1cccs1 (stereo unspecified)	Fatty acid synthase (Homo sapiens)	active
